- Tested on: Hyperlipidemic Hamster
- assay: In Vivo Assay of Hypolipidemic Agents Using the Hyperlipidemic Hamster
- condition-context: Mesocricetus auratus, po, 168 h, 50 mg/kg once daily oral, 7 days; percent change versus control, negative = lowering; read-out: % Reduction (in vivo) Cholest. Esters
- Method: In Vivo Assay of Hypolipidemic Agents Using the Hyperlipidemic Hamster Hamsters are separated into groups of six and given a controlled cholesterol diet (Purina Chow #5001 containing 0.5% cholesterol) for seven days. Diet consumption is monitored to determine dietary cholesterol exposure in the face of test compounds. The animals are dosed with the test compound once daily beginning with the initiation of diet. […]
result-type: change in vivo at 50 mg/kg

{"columns": ["molecule", "result-type", "result"],
 "data": [
  ["CCOC(=O)[C@@H]1[C@H](CCCc2ccccc2)C(=O)N1c1ccc(OC)cc1 (relative stereo)", "change in vivo at 50 mg/kg", "0%"],
  ["COc1ccc(N2C(=O)[C@H](CCCc3ccccc3)[C@@H]2c2ccc(N(S(C)(=O)=O)S(C)(=O)=O)cc2)cc1 (relative stereo) [Example 25B]", "change in vivo at 50 mg/kg", "0%"]
]}

Alright, here's another molecule for you.
stdin: // lookup change in vivo at 50 mg/kg | system=Hyperlipidemic Hamster | key= COc1ccc(OCC[C@H]2C(=O)N(c3ccccc3)[C@@H]2c2ccc(OC)cc2)cc1 (relative stereo)
stdout: -82%

Data credit: patent US5688787A
